Biological target: PTHR1 receptor
Sequence (P25961 whole entry): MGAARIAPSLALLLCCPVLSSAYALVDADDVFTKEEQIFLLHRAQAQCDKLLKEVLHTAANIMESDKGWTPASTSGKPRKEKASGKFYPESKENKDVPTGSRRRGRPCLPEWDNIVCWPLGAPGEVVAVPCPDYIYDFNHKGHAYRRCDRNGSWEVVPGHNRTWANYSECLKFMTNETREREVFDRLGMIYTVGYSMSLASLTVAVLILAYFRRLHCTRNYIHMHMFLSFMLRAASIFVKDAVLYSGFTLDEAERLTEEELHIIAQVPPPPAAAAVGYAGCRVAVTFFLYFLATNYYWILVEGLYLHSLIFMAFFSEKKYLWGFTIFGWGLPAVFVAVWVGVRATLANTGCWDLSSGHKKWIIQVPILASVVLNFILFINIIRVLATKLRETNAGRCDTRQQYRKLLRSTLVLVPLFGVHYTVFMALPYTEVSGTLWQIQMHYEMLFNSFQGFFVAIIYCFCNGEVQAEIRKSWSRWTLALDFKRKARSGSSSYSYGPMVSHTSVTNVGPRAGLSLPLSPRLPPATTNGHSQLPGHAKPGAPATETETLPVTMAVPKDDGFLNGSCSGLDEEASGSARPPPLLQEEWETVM
* marks the point of attachment. Palmitoyl = CCCCCCCCCCCCCCCC(=O)*
readout kind: Inhibition of Maximal Response

[[record]]
binder = "Palmitoyl-YFRRLHSTRNYIH-NH2 (SMILES CCCCCCCCCCCCCCCC(=O)N[C@@H](Cc1ccc(O)cc1)C(=O)N[C@@H](Cc1ccccc1)C(=O)N[C@@H](CCCNC(=N)N)C(=O)N[C@@H](CCCNC(=N)N)C(=O)N[C@@H](CC(C)C)C(=O)N[C@@H](Cc1c[nH]cn1)C(=O)N[C@@H](CO)C(=O)N[C@H](C(=O)N[C@@H](CCCNC(=N)N)C(=O)N[C@@H](CC(N)=O)C(=O)N[C@@H](Cc1ccc(O)cc1)C(=O)N[C@H](C(=O)N[C@@H](Cc1c[nH]cn1)C(N)=O)[C@@H](C)CC)[C@@H](C)O) [Compound 6]"
readout_kind = "Inhibition of Maximal Response"
recorded_measurement = "10.8%"

